tested on: T1, His9G-tagged cynomolgus CD27 recombinant protein (cynomolgus, limits assumed)
T1 construct: In-house, transient transfection of HEK293 cells; also called Cyno CD27/His
T1 chain: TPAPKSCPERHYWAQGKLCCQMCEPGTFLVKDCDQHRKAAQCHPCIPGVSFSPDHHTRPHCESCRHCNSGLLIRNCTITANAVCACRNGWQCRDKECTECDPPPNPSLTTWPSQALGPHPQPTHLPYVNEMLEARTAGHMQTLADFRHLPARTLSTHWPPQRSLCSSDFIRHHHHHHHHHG
protocol details: SPR Biacore 4000, antibody captured on anti-human Fc, His9G-tagged CD27 injected, 1:1 fit;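 further: Double-referenced SPR (blank anti-Fc surface and buffer injection subtracted), KD derived from association and dissociation rate constants, with human and cynomolgus CD27 as analytes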
Overview of recorded pKd for various binders
To interpret pKd, take it as minus log10 of a concentration measured in moles per litre.

Examples with their reported pKd follow.
hCD27.131A VH7VL6 huIgG4 (antibody, V domains shown) VH: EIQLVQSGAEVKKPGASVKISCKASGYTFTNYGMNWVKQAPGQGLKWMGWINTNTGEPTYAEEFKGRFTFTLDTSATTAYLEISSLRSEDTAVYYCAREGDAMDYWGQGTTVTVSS VL: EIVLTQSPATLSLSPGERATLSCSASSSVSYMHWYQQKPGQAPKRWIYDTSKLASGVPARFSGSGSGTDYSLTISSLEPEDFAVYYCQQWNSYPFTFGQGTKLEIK ... 7.24
hCD27.131A VH6VL8 huIgG1 (antibody, V domains shown) VH: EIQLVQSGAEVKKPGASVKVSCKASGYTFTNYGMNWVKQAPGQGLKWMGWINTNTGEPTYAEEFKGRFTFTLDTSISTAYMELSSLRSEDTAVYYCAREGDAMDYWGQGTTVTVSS VL: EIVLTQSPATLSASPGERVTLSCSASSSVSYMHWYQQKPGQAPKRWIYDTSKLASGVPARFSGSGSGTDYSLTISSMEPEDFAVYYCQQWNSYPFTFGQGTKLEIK ... 7.25

Data request: Give a short answer stating reported pKd for hCD27.131A VH8VL7 huIgG4 (antibody, V domains shown) VH: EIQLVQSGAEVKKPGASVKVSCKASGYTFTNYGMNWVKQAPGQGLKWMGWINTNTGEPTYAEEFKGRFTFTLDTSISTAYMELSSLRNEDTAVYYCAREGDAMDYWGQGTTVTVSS VL: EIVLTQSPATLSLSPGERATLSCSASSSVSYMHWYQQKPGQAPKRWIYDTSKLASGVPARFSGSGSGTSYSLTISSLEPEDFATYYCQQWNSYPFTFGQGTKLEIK .
Data returned: 7.11
